- procedure.text: chemical genetic growth profiling, strain panel (AID 1159580);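 further: tested at 20 µM; growth read once vehicle control cultures reached saturation at 30 °C; 1 = growth at the plate median or of vehicle wells; lower values mean less growth of the strain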
- stated.conditions: S. cerevisiae deletion strains, growth OD, locus YPL078C, strain atp4, hits give low values
Hit rate of the full screen: of about 5,500 compounds, about 2,000 (36%) were called active. Another 18% or so got no clear call; they are omitted. This is one part of the list.
experimental.readout: normalized growth
The reply should be a number, written without any unit.

# input What value of normalized growth has been recorded for this entry: C=C1CC2C(CCC3(C)C(=O)CCC23)C2(C)C=CC(=O)C=C12 (stereo not given)
# output 1

# input What value of normalized growth has been recorded for this entry: CC1(C)C=Cc2c(cc3occ(-c4ccc5c(c4)OCO5)c(=O)c3c2O)O1
# output 1.02

# input What value of normalized growth has been recorded for this entry: C[C@]12C=CC(=O)C=C1CCC1C2CC[C@]2(C)C(=O)CCC12 (stereo not given in full)
# output 0.989

# input What value of normalized growth has been recorded for this entry: COP(=S)(OC)SCn1nnc2ccccc2c1=O
# output 0.992

More entries:
# input What value of normalized growth has been recorded for this entry: COc1cc(O)c(C)c(O)c1
# output 1.03

---

- procedure.text: chemical genetic growth profiling, strain panel (AID 1159580)
- stated.conditions: S. cerevisiae deletion strains, growth OD, locus YOR080W, strain dia2, hits give low values
The whole screen tested about 5,500 compounds, of which about 2,000 (36%) were called active. Inconclusive results (about 18%) are left out. The list shows a part of the results.
experimental.readout: normalized growth
The reply should be a number, written without any unit.

Previously resolved entries follow.
# input What value of normalized growth has been recorded for this entry: O=c1ccc2ccc(O)c(O)c2o1
# output 0.986

# input What value of normalized growth has been recorded for this entry: O=C1c2ccccc2C(=O)c2c1ccc(O)c2O
# output 0.638

# input What value of normalized growth has been recorded for this entry: CC(=O)OC1CCC23C(=O)OC45CCC(C6=CC(=O)OC6)C4(C)CCC2C5CCC3(O)C1 (stereo unspecified)
# output 0.98

# input What value of normalized growth has been recorded for this entry: CC(=O)N[C@@H](CC(=O)O)C(=O)O
# output 1

# input What value of normalized growth has been recorded for this entry: C[C@]12C=CC(=O)C=C1CCC1C2CC[C@]2(C)C(=O)CCC12 (stereo partly specified)
# output 0.972

// moving on: another record for normalized growth
# input What value of normalized growth has been recorded for this entry: CC(C)=CCC1=C(O)c2ccccc2C(=O)C1=O
# output 0.789

---

- procedure.text: chemical genetic growth profiling, strain panel (AID 1159580)
- stated.conditions: S. cerevisiae deletion strains, growth OD, locus YDL074C, strain BRE1, hits give low values
The whole screen tested about 5,500 compounds, of which about 2,000 (36%) were called active. Another 18% or so got no clear call; they are omitted. The list shows a part of the results.
experimental.readout: normalized growth

# input What value of normalized growth has been recorded for this entry: COc1cc(O)c(C)c(O)c1
# output 1.02 (inactive)

# input What value of normalized growth has been recorded for this entry: O=c1cc(-c2ccc(O)cc2)oc2cc(O[C@@H]3O[C@H](CO)[C@@H](O)[C@H](O)[C@H]3O[C@@H]3OC[C@](O)(CO)[C@H]3O)cc(O)c12
# output 1.02 (inactive)

# input What value of normalized growth has been recorded for this entry: Fc1ccc(C(c2ccc(F)cc2)N2CCN(C/C=C/c3ccccc3)CC2)cc1
# output 0.904 (inactive)

// moving on: another record for normalized growth
# input What value of normalized growth has been recorded for this entry: Cn1cnc([N+](=O)[O-])c1Sc1ncnc2nc[nH]c12
# output 1.01 (inactive)

---

# Lookup of reported normalized growth keyed by entry
- procedure.text: chemical genetic growth profiling, strain panel (AID 1159580)
- stated.conditions: S. cerevisiae deletion strains, growth OD, locus YLR268W, strain sec22, hits give low values
The campaign covered roughly 5,500 compounds. About 2,000 (36%) were called active. Not shown: some 18% with an inconclusive outcome. The list shows a part of the results.
The reply should be a number, written without any unit.

Previously resolved entries follow.
# input What value of normalized growth has been recorded for this entry: C[C@]12CCC3c4ccc(O)cc4CCC3C1CC[C@@H]2OC(=O)CCC1CCCC1 (some centres not stated)
# output 0.993

# input What value of normalized growth has been recorded for this entry: CSCCC(NC=O)C(=O)NC(CC(C)C)C(=O)NC(Cc1ccccc1)C(=O)O (configuration not stated)
# output 1

# input What value of normalized growth has been recorded for this entry: COc1cc(O)c(C(=O)O)c(O)c1
# output 0.995

More entries:
# input What value of normalized growth has been recorded for this entry: CCC(=O)O[C@H]1CCC2C3CCc4cc(O)ccc4C3CC[C@@]21C (some centres not stated)
# output 0.991

# input What value of normalized growth has been recorded for this entry: COc1ccc2c(=O)c(-c3cc4c(cc3OC)OCO4)coc2c1
# output 0.972

# input What value of normalized growth has been recorded for this entry: COc1cc2c(cc1-c1coc3c4c(c(OC)cc3c1=O)OC(C)(C)C=C4)OCO2
# output 0.998

# input What value of normalized growth has been recorded for this entry: CC(C)=CCc1c(O)cc2occ(-c3ccc4c(c3)OCO4)c(=O)c2c1O
# output 1

---

- procedure.text: chemical genetic growth profiling, strain panel (AID 1159580);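 further: tested at 20 µM; growth read once vehicle control cultures reached saturation at 30 °C; 1 = growth at the plate median or of vehicle wells; lower values mean less growth of the strain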
- stated.conditions: S. cerevisiae deletion strains, growth OD, locus YNL175C, strain NOP13
About 2,000 (36%) of roughly 5,500 compounds were called active. Roughly 18% stayed inconclusive and do not appear here. Rule as the data show it: active = normalized growth mostly below about 0.91 (no sharp cut-off); inconclusive = no clear call, values can overlap the other calls; inactive = mostly above about 0.92. This is one part of the list.
Could you please pick one outcome from this set? active, inactive

# input Short answer needed: outcome of this test for CCCCCCC/C=C\CCCCCCCCC(=O)O ?
# output inactive

# input Short answer needed: outcome of this test for O=C1C=CC(=O)C=C1 ?
# output inactive

# input Short answer needed: outcome of this test for NCCNC(=O)c1ncsc1-c1cccc(F)c1 ?
# output inactive

From here, focus on the item given below.
# input Short answer needed: outcome of this test for COc1ccc2[nH]cc(CCNC(C)=O)c2c1 ?
# output inactive

---

# Lookup of reported normalized growth keyed by entry
- procedure.text: chemical genetic growth profiling, strain panel (AID 1159580);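 further: tested at 20 µM; growth read once vehicle control cultures reached saturation at 30 °C; 1 = growth at the plate median or of vehicle wells; lower values mean less growth of the strain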
- stated.conditions: S. cerevisiae deletion strains, growth OD, locus YJR075W, strain HOC1, hits give low values
Hit rate of the full screen: of about 5,500 compounds, about 2,000 (36%) were called active. Inconclusive results (about 18%) are left out. Some of the results follow.
The reply should be a number, written without any unit.

# input What value of normalized growth has been recorded for this entry: COc1cc(O)c(C(=O)O)c(O)c1
# output 1

---

- procedure.text: chemical genetic growth profiling, strain panel (AID 1159580);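 further: tested at 20 µM; growth read once vehicle control cultures reached saturation at 30 °C; 1 = growth at the plate median or of vehicle wells; lower values mean less growth of the strain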
- stated.conditions: S. cerevisiae deletion strains, growth OD, locus YKR091W, strain srl3
The whole screen tested about 5,500 compounds, of which about 2,000 (36%) were called active. About 18% were inconclusive and are not listed. No stated cut-off is given here; in the data, active means normalized growth mostly below about 0.91 (no sharp cut-off); inconclusive means no clear call, values can overlap the other calls; inactive means mostly above about 0.92. This is one part of the list.
Could you please pick one outcome from this set? TRUE (active), FALSE (inactive)

# input Short answer needed: outcome of this test for O=c1cc(-c2ccc(O)cc2)oc2cc(O[C@@H]3O[C@H](CO)[C@@H](O)[C@H](O)[C@H]3O[C@@H]3OC[C@](O)(CO)[C@H]3O)cc(O)c12 ?
# output FALSE

# input Short answer needed: outcome of this test for CC(=O)OC1CCC2C3CCc4cc(O)ccc4C3CCC12C (configuration not stated) ?
# output FALSE

# input Short answer needed: outcome of this test for O=c1ccc2ccc(O)c(O)c2o1 ?
# output FALSE

# input Short answer needed: outcome of this test for O=C(/C=C/C(=O)Oc1ccccc1C(=O)O)Oc1ccccc1C(=O)O ?
# output FALSE

# input Short answer needed: outcome of this test for COP(=S)(OC)SCn1nnc2ccccc2c1=O ?
# output FALSE

# input Short answer needed: outcome of this test for COc1cc(OC)c2c(=O)c(-c3ccc4c(c3)OCO4)coc2c1 ?
# output FALSE

More entries:
# input Short answer needed: outcome of this test for N#Cc1ccc2c(c1)N(CCCN1CCC(O)CC1)c1ccccc1S2 ?
# output FALSE

# input Short answer needed: outcome of this test for O=C1OC(=O)C2C3CCC(O3)C12 (configuration not stated) ?
# output FALSE

# input Short answer needed: outcome of this test for O=c1[nH]c2ccccc2n1CCCN1CCC(n2c(=O)[nH]c3cc(Cl)ccc32)CC1 ?
# output FALSE

# input Short answer needed: outcome of this test for C[C@H]1C(=O)O[C@@H]2CCN3CC=C(COC(=O)[C@](C)(O)[C@]1(C)O)[C@H]23 ?
# output FALSE

# input Short answer needed: outcome of this test for FC(F)(F)COCC(F)(F)F ?
# output FALSE

# input Short answer needed: outcome of this test for Fc1ccc(C(c2ccc(F)cc2)N2CCN(C/C=C/c3ccccc3)CC2)cc1 ?
# output TRUE

# input Short answer needed: outcome of this test for CC1(C)C[C@@H]2C(=O)CC[C@H]3O[C@]3(C)CC[C@H]21 ?
# output FALSE

# input Short answer needed: outcome of this test for CC(C)=CCOc1c2occc2cc2ccc(=O)oc12 ?
# output TRUE

# input Short answer needed: outcome of this test for CC(=O)OCC(=O)[C@@]1(O)CCC2C3CCC4=CC(=O)CC[C@]4(C)[C@@]3(F)[C@@H](O)C[C@@]21C (some centres not stated) ?
# output FALSE
